This collection of values is drawn from ChEMBL document CHEMBL1142148.

# System: Bifidobacterium longum
# assayExplanation: Antimicrobial activity against 90 mins oxgall-stressed Bifidobacterium longum P/N 601377 after 18 hrs
# Format: functional
The threshold is 60 µg/mL. Values of MIC beneath it are tagged Met; values meeting or exceeding it are tagged Not met.

Past entries and their recorded results:
• CC1(C)S[C@@H]2[C@H](NC(=O)Cc3ccccc3)C(=O)N2[C@H]1C(=O)O = Met
• CN[C@@H]1[C@H](O[C@H]2[C@H](O[C@H]3[C@H](O)[C@@H](O)[C@H](N=C(N)N)[C@@H](O)[C@@H]3N=C(N)N)O[C@@H](C)[C@]2(O)C=O)O[C@@H](CO)[C@H](O)[C@H]1O = Not met
• NC[C@H]1O[C@H](O[C@H]2[C@H](O)[C@@H](O[C@H]3O[C@H](CO)[C@@H](O)[C@H](N)[C@H]3O)[C@H](N)C[C@@H]2N)[C@H](O)[C@@H](O)[C@@H]1O = Not met

Is the reported MIC for CN(C)[C@@H]1C(O)=C(C(N)=O)C(=O)[C@@]2(O)C(O)=C3C(=O)c4c(O)cccc4[C@@](C)(O)[C@H]3C[C@@H]12.Cl [TETRACYCLINE HYDROCHLORIDE] strictly below 60 µg/mL?
Not met

Answer whether the molecule `CC[C@H]1OC(=O)[C@H](C)[C@@H](O[C@H]2C[C@@](C)(OC)[C@@H](O)[C@H](C)O2)[C@H](C)[C@@H](O[C@@H]2O[C@H](C)C[C@H](N(C)C)[C@H]2O)[C@](C)(O)C[C@@H](C)C(=O)[C@H](C)[C@@H](O)[C@]1(C)O` has MIC strictly less than 60 µg/mL
Met

====

The reader will find reported MIC values listed item by item below.
# System: Bifidobacterium bifidum
# assayExplanation: Antimicrobial activity against Bifidobacterium bifidum ATCC 15696
# Type: functional
Just the number in µg/mL, nothing appended.

Solved cases (3 shown):
* CC1(C)S[C@@H]2[C@H](NC(=O)[C@H](N)c3ccccc3)C(=O)N2[C@H]1C(=O)O | 0.98
* CC[C@H]1OC(=O)[C@H](C)[C@@H](O[C@H]2C[C@@](C)(OC)[C@@H](O)[C@H](C)O2)[C@H](C)[C@@H](O[C@@H]2O[C@H](C)C[C@H](N(C)C)[C@H]2O)[C@](C)(O)C[C@@H](C)C(=O)[C@H](C)[C@@H](O)[C@]1(C)O | 7.8
* O=C(N[C@H](CO)[C@H](O)c1ccc([N+](=O)[O-])cc1)C(Cl)Cl | 1.9

Attention now turns to another entry.
The measured MIC associated with `NC[C@@H]1O[C@H](O[C@H]2[C@@H](O)[C@H](O[C@@H]3[C@@H](O)[C@H](N)C[C@H](N)[C@H]3O[C@H]3O[C@H](CN)[C@@H](O)[C@H](O)[C@H]3N)O[C@@H]2CO)[C@H](N)[C@@H](O)[C@@H]1O` reads 250

====

# System: Bifidobacterium bifidum
# assayExplanation: Antimicrobial activity against 60 min 1 M HCl-stressed Bifidobacterium bifidum R0071 after 18 hrs
# Format: functional
assayReadout: MIC (µg/mL)
Answer in µg/mL, number only, no unit symbol.

- NC[C@H]1O[C@H](O[C@H]2[C@H](O)[C@@H](O[C@H]3O[C@H](CO)[C@@H](O)[C@H](N)[C@H]3O)[C@H](N)C[C@@H]2N)[C@H](O)[C@@H](O)[C@@H]1O: 0.98
- CC1(C)S[C@@H]2[C@H](NC(=O)Cc3ccccc3)C(=O)N2[C@H]1C(=O)O: 1.9

Now look at this one.
Response field MIC (Bifidobacterium bifidum) for item CN(C)[C@@H]1C(O)=C(C(N)=O)C(=O)[C@@]2(O)C(O)=C3C(=O)c4c(O)cccc4[C@@](C)(O)[C@H]3C[C@@H]12.Cl [TETRACYCLINE HYDROCHLORIDE] : 31.2
